# credit: patent US9884018B2

Test: Viscosity of molten mixture of mesalamine and hard fat
Type: physicochemical
Conditions: in-process molten mixture of mesalamine and hard fat; Drug Load 33% w/w
Method: Molten mixtures were prepared by the procedure described in Example 1 using mesalamine lots A, B, and E, The molten mixtures had the viscosities reported in Table 9 below. The in-process molten mixtures of mesalamine and hard fat used in the preparation of the suppositories described above with respect to FIGS. 4 to 6 had the viscosities reported in Table 12 below. Suppositories could not be made from Grades C and D from supplier 2.

Molecule	Dispersion Viscosity
Nc1ccc(O)c(C(=O)O)c1 [Supplier 2, grade B, mesalamine]	515 Cps
Nc1ccc(O)c(C(=O)O)c1 [Supplier 2, grade D, mesalamine]	Poor
Nc1ccc(O)c(C(=O)O)c1 [Supplier 2, grade A, mesalamine]	595 Cps
Nc1ccc(O)c(C(=O)O)c1 [Supplier 1, mesalamine]	694 Cps
